- tested.target: Truncated human Axl (Homo sapiens, UniProt P30530)
- Sequence (P30530 26-894 limits assumed): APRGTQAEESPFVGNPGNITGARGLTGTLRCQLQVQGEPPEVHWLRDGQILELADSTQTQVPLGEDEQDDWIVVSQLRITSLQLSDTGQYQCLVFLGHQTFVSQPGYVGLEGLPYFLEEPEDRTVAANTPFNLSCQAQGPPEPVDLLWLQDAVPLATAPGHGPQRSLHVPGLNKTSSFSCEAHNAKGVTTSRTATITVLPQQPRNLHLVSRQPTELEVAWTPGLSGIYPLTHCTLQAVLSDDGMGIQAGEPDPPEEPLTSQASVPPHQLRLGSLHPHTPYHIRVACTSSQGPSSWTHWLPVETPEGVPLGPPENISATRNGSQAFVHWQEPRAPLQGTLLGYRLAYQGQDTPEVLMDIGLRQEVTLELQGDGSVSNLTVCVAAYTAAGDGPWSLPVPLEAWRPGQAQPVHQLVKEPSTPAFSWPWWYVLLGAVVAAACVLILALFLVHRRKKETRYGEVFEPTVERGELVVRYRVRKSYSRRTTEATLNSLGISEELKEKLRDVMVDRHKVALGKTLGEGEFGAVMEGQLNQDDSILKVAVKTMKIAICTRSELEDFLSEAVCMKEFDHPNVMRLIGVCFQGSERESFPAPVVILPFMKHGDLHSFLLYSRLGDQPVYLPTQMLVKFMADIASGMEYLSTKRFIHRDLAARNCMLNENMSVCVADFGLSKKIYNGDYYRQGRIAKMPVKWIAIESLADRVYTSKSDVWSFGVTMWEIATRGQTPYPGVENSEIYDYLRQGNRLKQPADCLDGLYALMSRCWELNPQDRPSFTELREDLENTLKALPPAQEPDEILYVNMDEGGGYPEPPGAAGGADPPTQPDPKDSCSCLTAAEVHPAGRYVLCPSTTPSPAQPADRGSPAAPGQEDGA
- measurement.description: Kinase inhibition assay (inhibition of enzymatic Axl kinase activity)
- Assay type: biochemical
- condition.notes: Table 2, range of IC50 value; read-out: Axl
pIC50: −log10 of the molar value.
pIC50 values by entry

>  <compound>
CN1CCC(Nc2nc(Nc3ccc(Oc4cccc(F)c4)cc3)c3c(=O)[nH]cc(Br)c3n2)CC1.Cl [Compound 238, hydrochloride]

>  <pIC50>
7.00 to 7.96

$$$$
>  <compound>
CN1CCC(Nc2nc(Nc3ccc(OC4CCCCC4)cc3)c3c(=O)[nH]cc(Br)c3n2)CC1 [Compound 228]

>  <pIC50>
6.00 to 7.00

$$$$
>  <compound>
Cc1ccc(Oc2ccc(Nc3nc(NC4CCN(C)CC4)nc4c(Br)c[nH]c(=O)c34)cc2)cc1

>  <pIC50>
7.00 to 7.96

$$$$

Query: Param item = CN1CCC(Nc2nc(Nc3ccc(OC4CCCC4)cc3)c3c(=O)[nH]cc(Br)c3n2)CC1 ; retrieve measured pIC50.
Response: 6.00 to 7.00

----------
- tested.target: Truncated human Axl (Homo sapiens)
- measurement.description: Kinase inhibition assay (inhibition of enzymatic Axl kinase activity)
- Format: biochemical
- condition.notes: Table 1; read-out: Axl (IC50)
Structures can show the parent of a compound that is named as a salt.
IC50 values by entry

>  <compound>
Cc1cc(Nc2nc(NC3CCN(C)CC3)nc3c(Br)c[nH]c(=O)c23)ccc1Oc1ccccc1 [Compound 246, hydrochloride]

>  <measured.parameter>
IC50

>  <assay.value>
11 to 100 nM

$$$$

Query: Param item = CN1CCC(Nc2nc(Nc3ccc(OCC4CCCCC4)cc3)c3c(=O)[nH]cc(Br)c3n2)CC1 [Compound 224] ; retrieve measured IC50.
Response: 101 to 1000 nM

Query: Also need CN1CCC(Nc2nc(Nc3ccc(OCC4CCCC4)cc3)c3c(=O)[nH]cc(Br)c3n2)CC1 [Compound 235, hydrochloride] , thanks.
Response: 101 to 1000 nM

Query: Also need CC(C)c1ccc(Oc2ccc(Nc3nc(NC4CCN(C)CC4)nc4c(Br)c[nH]c(=O)c34)cc2)cc1 [Compound 230] , thanks.
Response: 11 to 100 nM

Query: Also need CN1CCC(Nc2nc(Nc3ccc(Oc4cccc(F)c4)cc3)c3c(=O)[nH]cc(Br)c3n2)CC1.Cl [Compound 238, hydrochloride] , thanks.
Response: 11 to 100 nM

Query: Also need CN1CCC(Nc2nc(Nc3ccc(Oc4cc(F)cc(F)c4)cc3)c3c(=O)[nH]cc(Br)c3n2)CC1 [Compound 243, hydrochloride] , thanks.
Response: 11 to 100 nM

Query: Also need CN1CCC(Nc2nc(Nc3ccc(OC4CCCCC4)cc3)c3c(=O)[nH]cc(Br)c3n2)CC1 [Compound 228] , thanks.
Response: 101 to 1000 nM

----------
pIC50 values by entry
- tested.target: Truncated human Axl (Homo sapiens, UniProt P30530)
- measurement.description: Kinase inhibition assay (inhibition of enzymatic Axl kinase activity)
- Assay type: biochemical
- condition.notes: Table 1; read-out: Axl (IC50)
pIC50: −log10 of the molar value. Counter-ions that a name gives are not always drawn.

Look over these answered cases.
>  <compound>
CN1CCC(Nc2nc(Nc3ccc(OCC4CCCC4)cc3)c3c(=O)[nH]cc(Br)c3n2)CC1 [Compound 227]

>  <tested.target>
Truncated human Axl (Homo sapiens, UniProt P30530)

>  <measured.parameter>
pIC50

>  <assay.value>
6.00 to 7.00

$$$$
>  <compound>
CN1CCC(Nc2nc(Nc3ccc(Oc4cccc(F)c4)c(F)c3)c3c(=O)[nH]cc(Br)c3n2)CC1 [Compound 247, hydrochloride]

>  <tested.target>
Truncated human Axl (Homo sapiens, UniProt P30530)

>  <measured.parameter>
pIC50

>  <assay.value>
7.00 to 7.96

$$$$
>  <compound>
CN1CCC(Nc2nc(Nc3ccc(Oc4cccc(F)c4)cc3)c3c(=O)[nH]cc(Br)c3n2)CC1

>  <tested.target>
Truncated human Axl (Homo sapiens, UniProt P30530)

>  <measured.parameter>
pIC50

>  <assay.value>
7.00 to 7.96

$$$$

Query: Param item = CN1CCC(Nc2nc(Nc3ccc(OC4CCCC4)cc3)c3c(=O)[nH]cc(Br)c3n2)CC1.Cl [Compound 237, hydrochloride] ; retrieve measured pIC50.
Response: 6.00 to 7.00

Query: Also need CN1CCC(Nc2nc(Nc3ccc(Oc4ccc(Cl)cc4)cc3)c3c(=O)[nH]cc(Br)c3n2)CC1 [Compound 242, hydrochloride] , thanks.
Response: 7.00 to 7.96

Query: Also need CC(C)N1CCC(Nc2nc(Nc3ccc(Oc4ccccc4)cc3)c3c(=O)[nH]cc(Br)c3n2)CC1 , thanks.
Response: 7.00 to 7.96

Query: Also need CN1CCC(Nc2nc(Nc3ccc(Oc4ccccc4)c(F)c3)c3c(=O)[nH]cc(Br)c3n2)CC1 [Compound 245, hydrochloride] , thanks.
Response: 7.00 to 7.96

Query: Also need CN1CCC(Nc2nc(Nc3ccc(OC4CCCC4)cc3)c3c(=O)[nH]cc(Br)c3n2)CC1 , thanks.
Response: 6.00 to 7.00

Query: Also need CN1CCC(Nc2nc(Nc3ccc(OC4CCCCC4)cc3)c3c(=O)[nH]cc(Br)c3n2)CC1 [Compound 233, hydrochloride] , thanks.
Response: 6.00 to 7.00

Query: Also need Cc1ccc(Oc2ccc(Nc3nc(NC4CCN(C)CC4)nc4c(Br)c[nH]c(=O)c34)cc2)cc1 [Compound 225] , thanks.
Response: 7.00 to 7.96

Query: Also need CCN1CCC(Nc2nc(Nc3ccc(Oc4ccccc4)cc3)c3c(=O)[nH]cc(Br)c3n2)CC1 , thanks.
Response: 7.00 to 7.96

Query: Also need O=c1[nH]cc(Br)c2nc(NC3CCN(CC(F)(F)F)CC3)nc(Nc3ccc(Oc4ccccc4)cc3)c12 , thanks.
Response: 6.00 to 7.00

Query: Also need Cc1ccc(Oc2ccc(Nc3nc(NC4CCN(C)CC4)nc4c(Br)c[nH]c(=O)c34)cc2)cc1 [Compound 231, hydrochloride] , thanks.
Response: 7.00 to 7.96

Query: Also need CN1CCC(Nc2nc(Nc3ccc(Oc4ccc(F)cc4)cc3)c3c(=O)[nH]cc(Br)c3n2)CC1 [Compound 232, hydrochloride] , thanks.
Response: 7.00 to 7.96

Query: Also need CN1CCC(Nc2nc(Nc3ccc(Oc4ccc(F)c(F)c4)cc3)c3c(=O)[nH]cc(Br)c3n2)CC1 [Compound 241, hydrochloride] , thanks.
Response: 7.00 to 7.96
